Study Target: BubR1/Bub3 complex (3×FLAG–BubR1 with untagged Bub3) (UniProt O60566 1-1050; O43684 1-328)
Sequence (O60566 whole entry, chain 1 of 2): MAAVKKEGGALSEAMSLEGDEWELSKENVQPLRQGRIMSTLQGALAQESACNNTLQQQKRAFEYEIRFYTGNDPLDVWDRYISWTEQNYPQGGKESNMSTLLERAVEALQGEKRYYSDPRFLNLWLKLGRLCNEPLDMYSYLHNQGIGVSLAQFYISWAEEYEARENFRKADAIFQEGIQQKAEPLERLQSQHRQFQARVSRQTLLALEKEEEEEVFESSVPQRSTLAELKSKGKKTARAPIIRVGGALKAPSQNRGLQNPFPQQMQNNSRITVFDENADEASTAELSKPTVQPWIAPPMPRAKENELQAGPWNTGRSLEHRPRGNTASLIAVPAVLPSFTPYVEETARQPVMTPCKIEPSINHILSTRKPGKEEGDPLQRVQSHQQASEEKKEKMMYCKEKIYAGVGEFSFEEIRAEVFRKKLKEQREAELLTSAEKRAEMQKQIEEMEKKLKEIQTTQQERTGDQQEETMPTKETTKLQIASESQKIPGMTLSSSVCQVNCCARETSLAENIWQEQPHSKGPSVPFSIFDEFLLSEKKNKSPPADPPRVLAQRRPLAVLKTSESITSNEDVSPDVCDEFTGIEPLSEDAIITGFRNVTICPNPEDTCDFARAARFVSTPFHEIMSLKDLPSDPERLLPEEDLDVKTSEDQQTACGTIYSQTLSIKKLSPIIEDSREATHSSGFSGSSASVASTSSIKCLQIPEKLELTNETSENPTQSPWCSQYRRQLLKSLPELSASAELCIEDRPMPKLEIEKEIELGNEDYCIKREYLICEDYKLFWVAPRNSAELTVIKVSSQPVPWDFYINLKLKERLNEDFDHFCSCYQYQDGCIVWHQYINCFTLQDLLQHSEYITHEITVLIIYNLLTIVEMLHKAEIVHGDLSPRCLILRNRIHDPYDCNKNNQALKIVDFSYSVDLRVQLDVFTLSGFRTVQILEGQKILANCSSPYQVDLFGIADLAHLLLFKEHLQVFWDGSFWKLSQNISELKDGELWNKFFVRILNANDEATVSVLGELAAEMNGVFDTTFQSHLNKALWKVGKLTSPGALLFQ
Sequence (O43684 whole entry, chain 2 of 2): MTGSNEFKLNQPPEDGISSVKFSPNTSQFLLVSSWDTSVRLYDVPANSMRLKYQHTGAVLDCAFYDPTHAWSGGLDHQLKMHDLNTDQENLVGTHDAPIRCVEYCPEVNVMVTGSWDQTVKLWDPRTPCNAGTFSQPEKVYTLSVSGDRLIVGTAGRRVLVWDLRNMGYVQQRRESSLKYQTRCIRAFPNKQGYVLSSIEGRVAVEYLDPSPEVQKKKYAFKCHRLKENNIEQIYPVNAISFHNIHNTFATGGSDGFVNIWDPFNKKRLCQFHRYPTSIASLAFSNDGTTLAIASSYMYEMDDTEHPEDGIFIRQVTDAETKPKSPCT
Test: MST; 50 mM NaCl
Observation Type: Kd (nM)
Answers are plain numbers, in nM.

Sample EDDKNDMDITKSYTIEIN (N-terminal Btn-PEG2-C-PEG2 (biotin, PEG2, cysteine, PEG2); Nle (norleucine) at position 7 of the letters, written here as M; phosphothreonine (Tp) at position 10 of the letters (MDIT); C-terminal amide) [MELT12p peptide (MDIT phosphorylated), Btn-PEG2-C-PEG2-EDDKND-Nle-DI-Tp-KSYTIEIN-amide] — what was its Kd?
259
